Each record here notes measured growth.
test system: SK-OV-3 ovarian; assay: NCI-60 one-dose screen, 48 h (100 = growth as untreated, 0 = no growth, -100 = all killed); settings: 10 µM unless noted
This is part of a sample that, as a whole, favours compounds with a hit. Of some 83,000 tested, about 20% had one in any assay.
Parameter: growth (%)

[
  {
    "Compound": "NS(=O)(=O)c1ccc(CCN2C(=O)C3C(C2=O)C2(Cl)C(Cl)=C(Cl)C3(Cl)C2(Cl)Cl)cc1 (configuration not stated)",
    "Parameter": "growth",
    "Measured": 115
  },
  {
    "Compound": "CC(C)=CCC[C@](C)(O)[C@H]1CC[C@]2(C)[C@@H]1CC[C@@H]1[C@@]3(C)C/C(=C/c4ccccc4)C(=O)C(C)(C)[C@@H]3CC[C@]12C",
    "Parameter": "growth",
    "Measured": 97.8
  },
  {
    "Compound": "CCCCCC(=O)Oc1ccc(/C(=C(\\C)c2ccccc2)c2ccc(OCCN3CCCCC3)cc2)cc1",
    "Parameter": "growth",
    "Measured": 80.7
  },
  {
    "Compound": "CCCCNC(=O)Oc1ccc(/C(=C(\\C)c2ccccc2)c2ccc(OCCN3CCCCC3)cc2)cc1",
    "Parameter": "growth",
    "Measured": 71.6
  },
  {
    "Compound": "CN(C)CCC(=O)c1ccc([N+](=O)[O-])cc1",
    "Parameter": "growth",
    "Measured": 99.5
  },
  {
    "Compound": "COc1cc(F)c(/C=C/c2cc(/C=C/c3cc(OC)c(OC)cc3F)on2)cc1OC",
    "Parameter": "growth",
    "Measured": 105
  },
  {
    "Compound": "Cc1ccc(CNc2c3ccccc3nc3cc(NC(=O)CCN4CCCC4)ccc23)cc1",
    "Parameter": "growth",
    "Measured": 42.5
  },
  {
    "Compound": "Nc1ccccc1NC(=O)c1ccc(-n2nc(-c3ccccc3)c3ccccc32)cc1",
    "Parameter": "growth",
    "Measured": 107
  },
  {
    "Compound": "CCOC(=O)c1nc2c3ccccc3ccn2c1C(=O)OCC",
    "Parameter": "growth",
    "Measured": 109
  },
  {
    "Compound": "COc1ccc(C/C(C)=C(/c2ccc(OCCCN(C)C)cc2)c2ccc(OC(C)=O)cc2)cc1",
    "Parameter": "growth",
    "Measured": 88
  },
  {
    "Compound": "O=C(Cn1c[n+](CC(=O)c2ccc(-c3ccccc3)cc2)c2ccccc21)Nc1cccc2cccnc12",
    "Parameter": "growth",
    "Measured": 50.5
  },
  {
    "Compound": "Cc1nn(-c2ccccc2)c(Cl)c1/C=N\\N=c1/sc2ccccc2n1C",
    "Parameter": "growth",
    "Measured": 94.7
  },
  {
    "Compound": "COc1ccc(C(=O)C2C(C#N)C(C#N)C3C=Cc4ccccc4N32)cc1 (configuration not stated)",
    "Parameter": "growth",
    "Measured": 55.2
  },
  {
    "Compound": "COc1ccccc1/C(C)=N/NC(=O)CSc1nc2ccccc2c(=O)n1Cc1ccc(S(N)(=O)=O)cc1",
    "Parameter": "growth",
    "Measured": 115
  },
  {
    "Compound": "Cc1ccc(-c2csc(NC(=O)CSc3nc(-c4ccccc4)cc(=O)[nH]3)n2)cc1",
    "Parameter": "growth",
    "Measured": 92.4
  },
  {
    "Compound": "CCN(CC)CC[n+]1cc2cc(OC)c(OC)cc2c2ccc3cc4c(cc3c21)OCO4",
    "Parameter": "growth",
    "Measured": -10.7
  },
  {
    "Compound": "CCCOc1ccc(/C=N/Nc2cc(C)nc3ccc(Cl)cc23)cc1",
    "Parameter": "growth",
    "Measured": 89.1
  },
  {
    "Compound": "CN(C)c1ccc(Nc2c3ccccc3nc3cc(NC(=O)CCN4CCCC4)ccc23)cc1",
    "Parameter": "growth",
    "Measured": 16.6
  },
  {
    "Compound": "CCN1C(=O)N(CC)C2Nn3c(s/c(=C\\c4ccc(OC)cc4)c3=O)=NC21 (configuration not stated)",
    "Parameter": "growth",
    "Measured": 62.7
  },
  {
    "Compound": "CCCNC(=O)Oc1ccc(/C(=C(\\C)c2ccccc2)c2ccc(OCCCN(C)C)cc2)cc1",
    "Parameter": "growth",
    "Measured": 71.9
  },
  {
    "Compound": "COc1ccc(/C=C/c2nc(Nc3ccc(S(=O)(=O)Nc4nc(C)cc(C)n4)cc3)c3ccccc3n2)cc1",
    "Parameter": "growth",
    "Measured": 90.9
  },
  {
    "Compound": "C=CC(=O)N[C@@H](/C=C/C(=O)OCC)Cc1ccc(-c2cc(Cl)cc(Cl)c2)cc1",
    "Parameter": "growth",
    "Measured": 26.7
  },
  {
    "Compound": "COc1cc2c(c(OC)c1OC)CCC(c1cccc(NC(=O)c3cccc(Br)c3)c1)O2 (configuration not stated)",
    "Parameter": "growth",
    "Measured": 84
  },
  {
    "Compound": "CCCOC(=O)N[C@H]1CCc2c(Cl)c(OC)c(OC)c(OC)c2-c2ccc(SC)c(=O)cc21",
    "Parameter": "growth",
    "Measured": 38.3
  },
  {
    "Compound": "NNC(=O)c1ccc(-n2nc(-c3ccccc3)c3ccccc32)cc1",
    "Parameter": "growth",
    "Measured": 98.9
  },
  {
    "Compound": "O=C(c1ccccc1)N1N=C(c2ccc(-n3ccc(C(F)(F)F)n3)c(F)c2)CC1c1ccc[nH]1 (configuration not stated)",
    "Parameter": "growth",
    "Measured": 141
  },
  {
    "Compound": "Oc1ccc(C(c2ccc(O)cc2)c2ccc(Br)cn2)cc1",
    "Parameter": "growth",
    "Measured": 65.4
  },
  {
    "Compound": "Cc1nc2sccn2c1-c1nc2sccn2c1/C=C1/C(=O)Nc2ccccc21",
    "Parameter": "growth",
    "Measured": 31.2
  },
  {
    "Compound": "O=C1c2ccc3c4c(ccc(c24)C(=O)N1CCCNCc1ccccc1Cl)C(=O)N(CCCNCc1ccccc1Cl)C3=O",
    "Parameter": "growth",
    "Measured": 28.3
  },
  {
    "Compound": "O=C1c2ccc3c4c(ccc(c24)C(=O)N1CCCNCc1ccccc1)C(=O)N(CCCNCc1ccccc1)C3=O",
    "Parameter": "growth",
    "Measured": -11.4
  },
  {
    "Compound": "COc1ccc(C(=O)c2cc(OC)c(OC)c(OC)c2)cc1O",
    "Parameter": "growth",
    "Measured": 37.2
  },
  {
    "Compound": "Cc1cc2nc3c4cc([N+](=O)[O-])ccc4n(CCN(C)C)c3nc2cc1C",
    "Parameter": "growth",
    "Measured": 8.97
  }
]

---

Each record here notes measured growth.
System: UACC-62 melanoma
Assay: NCI-60 one-dose screen, 48 h (100 = growth as untreated, 0 = no growth, -100 = all killed)
Conditions: 10 µM unless noted
Description: Growth inhibition of the UACC-62 human tumor cell line is measured as a screen for anti-cancer activity. Cells are grown in 96 well plates and exposed to the test compound for 48 hours. Compounds are tested at a single concentration, which is 10^-5 M for most compounds. The reported endpoint is percent growth (GI% or GIPRCNT), where numbers from 0 - 100% represent growth inhibition, and numbers from -100% - 0 represent cell death. For example, a value of 40 represents 60% growth inhibition. […]
About 83,000 compounds went through this panel and 20% of them were active in at least one assay; those are over-represented in the sample as a whole.

[
  {
    "Molecule": "O=C1/C=C/[C@@H](O)[C@@H]2C[C@@H](O)C[C@H]2/C=C/CCC[C@H](CCc2cccc3ccccc23)O1",
    "Readout Units": "%",
    "growth": 11.9
  },
  {
    "Molecule": "Cc1cccc(C)c1N=c1oc2ccc(Cl)cc2nc1-c1ccccc1O",
    "Readout Units": "%",
    "growth": 81.3
  },
  {
    "Molecule": "CCOc1ccc(Nc2nc(-c3ccc4c(c3)NC(=O)CO4)cs2)cc1",
    "Readout Units": "%",
    "growth": 52.1
  },
  {
    "Molecule": "O=C1c2c(c3c4cccc(F)c4[nH]c3c3ccc4ccccc4c23)C(=O)N1O",
    "Readout Units": "%",
    "growth": 26.9
  },
  {
    "Molecule": "COc1ccc(C(=O)Cn2c(C(=O)c3ccccc3)nc3ccccc32)cc1",
    "Readout Units": "%",
    "growth": 15.7
  },
  {
    "Molecule": "CCCCCCCCO/N=C\\c1c2c(O)c3c(O)c(C)c4c(c3c1O)C(=O)C(C)(O/C=C\\C(OC)C(C)C(OC(C)=O)C(C)C(O)C(C)C(O)C(C)/C=C\\C=C(\\C)C(=O)N2)O4 (stereo not drawn)",
    "Readout Units": "%",
    "growth": 26.2
  },
  {
    "Molecule": "CN(C)CC(O)c1ccc(/C=C/c2ccc(Cl)cc2)cc1 (stereo not drawn)",
    "Readout Units": "%",
    "growth": -79
  },
  {
    "Molecule": "OCc1cnc2ccccc2c1NC1CCCCCC1",
    "Readout Units": "%",
    "growth": 81.7
  }
]

All values here come from PubChem BioAssay (NCI).
